- Tested on: ACHN renal
- Experiment Description: NCI tumour cell line growth inhibition, 48 h
Measure Name: TGI (µM)
Answers are plain numbers, in µM.

C=CCNCCN1C(=O)c2ccc3c4c(ccc(c24)C1=O)C(=O)N(CCNCC=C)C3=O: 2.52

[Q] Look up and report measured TGI for this entry: COC(=O)c1cc(C)n(CN(Cn2nc(C(=O)OC)cc2C)c2ccccc2)n1
[A] 44.6

====

I'd be grateful if you could share measured TGI for these entries.
- System: SF-295 CNS
- Experiment Description: NCI tumour cell line growth inhibition, 48 h

Here is how some molecules turned out for TGI.
COc1ccc2cc(C(=O)CCC(=O)O)ccc2c1: > 100 µM
COC(=O)[C@@]12C(=O)CCC(=O)C1C1C(=CC2C)O[C@@H]2OC3(CCCCC3)O[C@H]12 (stereo not given in full): > 100 µM
COc1cc2c(/C=C3\C(=O)N(C)c4ccc(O)cc43)c[nH]c2cc1C: 17.3 µM
O=C(CC(=O)N1N=C(N2c3ccccc3Sc3ccccc32)CC1c1ccccc1)Nc1ccccc1Cl (stereo not given): > 100 µM

# input for lookup
[Q] Look up and report measured TGI for this entry: COc1ccc(-c2c(C#N)c(=O)nc(SC)n2C2OCC(OC(C)=O)C(OC(C)=O)C2OC(C)=O)cc1 (stereo not given)
[A] > 100 µM
